System: MILI (PIWIL2) piRISC loaded with L1MC piRNA (26 nt);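 also: 1 nM active piRISC with 0.1 nM target library at 33 °C single turnover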
Experiment: pre-steady-state target cleavage rate (min^-1); guide: L1MC piRNA 5'p-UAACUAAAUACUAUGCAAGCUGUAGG; higher = faster piRNA-guided slicing of the target
Conditions: auxiliary factor: none (no GTSF1)
Tick 1 (yes) if pre-steady-state target cleavage rate is 0.006 or greater. Tick 0 (no) if pre-steady-state target cleavage rate is less than 0.006.

The following sequences have reported results that may help.
>  <SEQUENCE_INPUT>
UCCUGGAUGAGCUUGCAUAGUAUCUUAGUUA

>  <GROUP>
1 (yes)

$$$$
>  <SEQUENCE_INPUT>
UCCUGCUACAGCUUCGCAUAGUAUUUAGUUA

>  <GROUP>
1 (yes)

$$$$
>  <SEQUENCE_INPUT>
UCCUGGAUCAGCUUGCUUAGUAUUUAGUUA

>  <GROUP>
1 (yes)

$$$$
>  <SEQUENCE_INPUT>
UCCUGGUAUCAGCUUGCAUAGUAUUUAGUUA

>  <GROUP>
1 (yes)

$$$$
>  <SEQUENCE_INPUT>
UCCUGGUACAGCUUGCAUAGUGUUUAGUUA

>  <GROUP>
1 (yes)

$$$$

Task: pre-steady-state target cleavage rate >= 0.006 for UCCUGGAUCAGCAACCAUAGUAUUUAGAAA ?
Output: 0 (no)

Task: pre-steady-state target cleavage rate >= 0.006 for UCCUCCUACAGCAUGCAUAGUAUUUAGUAA ?
Output: 0 (no)

Task: pre-steady-state target cleavage rate >= 0.006 for UCCUGGAUGUGCUAGCAAAGUAUUUAGUUA ?
Output: 0 (no)

====

Test system: EfPiwi piRISC loaded with piRNA #1 (26 nt)
Test: pre-steady-state target cleavage rate (min^-1); auxiliary factor: 500 nM Ephydatia muelleri Gtsf1; guide: piRNA #1 5'p-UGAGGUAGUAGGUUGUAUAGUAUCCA; higher = faster piRNA-guided slicing of the target
Tick 1.0 if pre-steady-state target cleavage rate is 0.02 or greater. Tick 0.0 if pre-steady-state target cleavage rate is less than 0.02.

>  <SEQUENCE_INPUT>
GGAGACCUAUGUAUACAACCUACUACUCUCA

>  <MEASURED_ON>
EfPiwi piRISC loaded with piRNA #1 (26 nt)

>  <GROUP>
0.0

$$$$
>  <SEQUENCE_INPUT>
GGAGAGGAUACUAAUACAACCUACUACCUCA

>  <MEASURED_ON>
EfPiwi piRISC loaded with piRNA #1 (26 nt)

>  <GROUP>
1.0

$$$$

Task: pre-steady-state target cleavage rate >= 0.02 for GGAGAGGAUACUAUACAAGGUACUACCUCA ?
Output: 0.0

Task: pre-steady-state target cleavage rate >= 0.02 for GGAGACCAUACUAUACAACCAUACUACCUCA ?
Output: 0.0

Task: pre-steady-state target cleavage rate >= 0.02 for GGAGAGGAUACUAUACAACCUACCACCUCA ?
Output: 0.0

Task: pre-steady-state target cleavage rate >= 0.02 for GGAGACCUUACUAUACAUCCUAGUACCUCA ?
Output: 0.0

Task: pre-steady-state target cleavage rate >= 0.02 for GGAGACCUAUCUAUACAACCUACUACCUUA ?
Output: 1.0

Task: pre-steady-state target cleavage rate >= 0.02 for GGAGAGGAUUGUAUACAACCUACUACCUCA ?
Output: 0.0

Task: pre-steady-state target cleavage rate >= 0.02 for GGAGUGGAUACUAUACAACCUACUACCUCA [g2:g26:cont:t1A] ?
Output: 1.0

Task: pre-steady-state target cleavage rate >= 0.02 for GGAGAGGAUACUAUUCAAGCUACUACCUCA ?
Output: 0.0

Task: pre-steady-state target cleavage rate >= 0.02 for GGAGAGCAUUCUAUACAACCUACUACCUCA ?
Output: 0.0

====

Test system: MILI (PIWIL2) piRISC loaded with L1MC piRNA (26 nt);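 also: 1 nM active piRISC with 0.1 nM target library at 33 °C single turnover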
Test: pre-steady-state target cleavage rate (min^-1); guide: L1MC piRNA 5'p-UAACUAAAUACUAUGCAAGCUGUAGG; higher = faster piRNA-guided slicing of the target
Details: auxiliary factor: 500 nM mouse GTSF1
Tick Criterion met if pre-steady-state target cleavage rate is 0.06 or greater. Tick Criterion not met if pre-steady-state target cleavage rate is less than 0.06.

>  <SEQUENCE_INPUT>
UCCUGGAUGUCCUUGCAUAGUAUUUUGUUA

>  <GROUP>
Criterion not met

$$$$

Task: pre-steady-state target cleavage rate >= 0.06 for UCCUGGAUCAGGUUGCAUAGUAUUUAGUAA ?
Output: Criterion met

Task: pre-steady-state target cleavage rate >= 0.06 for UCCUGGUACAGCUUGGUAAGUAUUUAGUAA ?
Output: Criterion met

Task: pre-steady-state target cleavage rate >= 0.06 for UCCUGGAUCAGGUUCCAUAGUAUUUAGUUA ?
Output: Criterion not met

Task: pre-steady-state target cleavage rate >= 0.06 for UCCUGGAUGUCCUUGCAAACUAUUUAGUUA ?
Output: Criterion not met

Task: pre-steady-state target cleavage rate >= 0.06 for UCCUGGAUGUCGAUGCAUAGUAUAAAGUUA ?
Output: Criterion met

====

System: MILI (PIWIL2) piRISC loaded with L1MC piRNA (26 nt);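 also: 1 nM active piRISC with 0.1 nM target library at 33 °C single turnover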
Test: pre-steady-state target cleavage rate (min^-1); guide: L1MC piRNA 5'p-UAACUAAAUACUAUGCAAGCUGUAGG; higher = faster piRNA-guided slicing of the target
Conditions: auxiliary factor: 500 nM mouse GTSF1
Reported pre-steady-state target cleavage rate values follow for various sequences
Answer with the value's number alone.

In the examples that follow, each entry is paired with its recorded pre-steady-state target cleavage rate.
>  <SEQUENCE_INPUT>
UCCUGGAACAGCUUGCAUAGUAAUAAGUUA

>  <pre-steady-state target cleavage rate>
0.103

$$$$
>  <SEQUENCE_INPUT>
UCCUGGAUGUCGUUGCAUAGUAUUUAGUAA

>  <pre-steady-state target cleavage rate>
0.191

$$$$
>  <SEQUENCE_INPUT>
UCCUGGAUGUGCUUGAAUAGUAUUUAGUUA

>  <pre-steady-state target cleavage rate>
0.127

$$$$
>  <SEQUENCE_INPUT>
UCCUCCACAGCUUGCAUAGUAUUUAGUUA

>  <pre-steady-state target cleavage rate>
0.248

$$$$
>  <SEQUENCE_INPUT>
UCCUGGAACAGCUUCCAUUGUAUUUAGUUA

>  <pre-steady-state target cleavage rate>
0.11

$$$$

Task: Please give the measured pre-steady-state target cleavage rate for this sequence: UCCUGGAUGUCGAUGAAUAGUAUUUAGUUA
Output: 0.00887

Task: Please give the measured pre-steady-state target cleavage rate for this sequence: UCCUGCUACAGGAUGCAUAGUAUUUAGAAA
Output: 0.0163

====

Tested on: MILI (PIWIL2) piRISC loaded with L1MC piRNA (26 nt);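 also: 1 nM active piRISC with 0.1 nM target library at 33 °C single turnover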
Test: pre-steady-state target cleavage rate (min^-1); guide: L1MC piRNA 5'p-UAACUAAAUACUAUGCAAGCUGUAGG; higher = faster piRNA-guided slicing of the target
Details: auxiliary factor: 500 nM mouse GTSF1
Reported pre-steady-state target cleavage rate values follow for various sequences
Answer with the value's number alone.

>  <SEQUENCE_INPUT>
UCCUGGUACAGCUUGCUUAGUAUUUAGUAA

>  <pre-steady-state target cleavage rate>
0.244

$$$$
>  <SEQUENCE_INPUT>
UCCUGGAUGUGCUUGCAUUGUAUUUAGAUA

>  <pre-steady-state target cleavage rate>
0.0503

$$$$
>  <SEQUENCE_INPUT>
UCCUGGUAGUCCUUGCAUAGUAUUUACAAA

>  <pre-steady-state target cleavage rate>
0.00835

$$$$

API: the following record is the query input.
Task: Can you look up pre-steady-state target cleavage rate on MILI (PIWIL2) piRISC loaded with L1MC piRNA (26 nt) for UCCUGGAUCAGGUUGCAUAGUUUUUAGUUA ?;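 also: 1 nM active piRISC with 0.1 nM target library at 33 °C single turnover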
Output: 0.023

====

Test system: MILI (PIWIL2) piRISC loaded with L1MC piRNA (26 nt);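 also: 1 nM active piRISC with 0.1 nM target library at 33 °C single turnover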
Assay: pre-steady-state target cleavage rate (min^-1); guide: L1MC piRNA 5'p-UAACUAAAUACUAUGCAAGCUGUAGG; MIWI and MILI are mouse PIWI proteins and EfPiwi is from a freshwater sponge; tags in brackets are library labels; higher = faster piRNA-guided slicing of the target
Conditions: auxiliary factor: 500 nM mouse GTSF1
Each entry belongs to exactly one class, chosen by where its pre-steady-state target cleavage rate falls: bottom range: < 0.09; center range: ≥ 0.09 and < 0.2; top range: ≥ 0.2

The following sequences have reported results that may help.
>  <SEQUENCE_INPUT>
UCCUGGAACAGACUUGCAUAGUAUUUAGUUA

>  <GROUP>
top range

$$$$
>  <SEQUENCE_INPUT>
UCCUGGAACACCUUGCAUAGUAUUUUCAAA

>  <GROUP>
bottom range

$$$$
>  <SEQUENCE_INPUT>
UCCUGCUUCAGCUUGCAUAGUAUUUAGUUA

>  <GROUP>
top range

$$$$
>  <SEQUENCE_INPUT>
UCCUGGUACAGCUUCCAAAGUAUUUAGUUA

>  <GROUP>
center range

$$$$
>  <SEQUENCE_INPUT>
UCCUGGAUGUGCUUGGCAUAGUAUUUAGUUA

>  <GROUP>
center range

$$$$

Task: Classify this sequence: UCCUCCUACAGCUUGCAUACGUAUUUAGUUA
Output: bottom range

Task: Classify this sequence: UCCUGGAUCAGCUUGCAUAGUAUUUAGUUUA
Output: top range

Task: Classify this sequence: UCCUCCUACAGCAUGCAAAGUAUUUAGUUA
Output: center range

Task: Classify this sequence: UCCUGGAACAGCUUGGAUAGUUUUUAGUUA
Output: bottom range

Task: Classify this sequence: UCCUGCUAGAGCUUGGAUAGUAUUUAGUUA
Output: center range

Task: Classify this sequence: UCCUGGAUGUCGAACGAUAGUAUUUUAGUUA
Output: bottom range

Task: Classify this sequence: UCCUCCUACACGUUGCAUAGUAUUUAGUUA
Output: top range

Task: Classify this sequence: UCCUCCUACAGCUUGCAUAGUUAUUAGUAA
Output: bottom range

Task: Classify this sequence: UCCUGGUACAGCUUGCUUAGUAUUAAGUUA
Output: center range
